Study target: yeast α-glucosidase (Saccharomyces cerevisiae)
Sequence (P53341 whole entry): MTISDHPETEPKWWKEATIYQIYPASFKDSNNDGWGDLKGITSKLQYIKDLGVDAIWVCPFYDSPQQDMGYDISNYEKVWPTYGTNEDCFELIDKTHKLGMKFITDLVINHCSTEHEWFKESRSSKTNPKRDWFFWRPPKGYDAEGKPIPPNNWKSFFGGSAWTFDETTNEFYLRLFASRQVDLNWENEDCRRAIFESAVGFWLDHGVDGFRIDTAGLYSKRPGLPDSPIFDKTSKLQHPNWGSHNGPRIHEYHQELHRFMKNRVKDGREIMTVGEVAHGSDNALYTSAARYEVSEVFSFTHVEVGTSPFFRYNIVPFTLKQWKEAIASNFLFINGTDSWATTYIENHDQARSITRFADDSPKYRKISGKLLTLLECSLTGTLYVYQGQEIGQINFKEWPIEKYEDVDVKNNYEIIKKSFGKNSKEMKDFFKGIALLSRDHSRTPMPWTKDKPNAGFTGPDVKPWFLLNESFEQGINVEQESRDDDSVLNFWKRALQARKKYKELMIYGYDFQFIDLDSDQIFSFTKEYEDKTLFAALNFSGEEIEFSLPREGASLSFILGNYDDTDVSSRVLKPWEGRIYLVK
Method summary: biochemical
Type: biochemical
pIC50: −log10 of the molar value.
Reported endpoint: pIC50

| Entry smiles | Measured |
| --- | --- |
| COc1ccc(NC(=O)Cn2cc(CNC(=O)c3cc4ccccc4[nH]3)nn2)cc1 | 4.08 |
| O=C(Cn1cc(CNC(=O)c2cc3ccccc3[nH]2)nn1)Nc1ccc(Br)cc1 | 4.57 |
| O=C(Cn1cc(CNC(=O)c2cc3ccccc3[nH]2)nn1)Nc1ccccc1 | 4.20 |
| Cc1cccc(NC(=O)Cn2cc(CNC(=O)c3cc4ccccc4[nH]3)nn2)c1 | 4.20 |
| O=C(Cn1cc(CNC(=O)c2cc3ccccc3[nH]2)nn1)Nc1ccc(Cl)cc1 | 4.08 |
| Cc1ccc(NC(=O)Cn2cc(CNC(=O)c3cc4ccccc4[nH]3)nn2)cc1 | 4.37 |

Numbers sourced from paper PMC11233587.
